- assayTarget: T1, human LAG-3 expressed on cells (DO11.10 or HEK 293 cells over-expressing human LAG-3) (human, UniProt P18627 23-525)
- T1 sequence: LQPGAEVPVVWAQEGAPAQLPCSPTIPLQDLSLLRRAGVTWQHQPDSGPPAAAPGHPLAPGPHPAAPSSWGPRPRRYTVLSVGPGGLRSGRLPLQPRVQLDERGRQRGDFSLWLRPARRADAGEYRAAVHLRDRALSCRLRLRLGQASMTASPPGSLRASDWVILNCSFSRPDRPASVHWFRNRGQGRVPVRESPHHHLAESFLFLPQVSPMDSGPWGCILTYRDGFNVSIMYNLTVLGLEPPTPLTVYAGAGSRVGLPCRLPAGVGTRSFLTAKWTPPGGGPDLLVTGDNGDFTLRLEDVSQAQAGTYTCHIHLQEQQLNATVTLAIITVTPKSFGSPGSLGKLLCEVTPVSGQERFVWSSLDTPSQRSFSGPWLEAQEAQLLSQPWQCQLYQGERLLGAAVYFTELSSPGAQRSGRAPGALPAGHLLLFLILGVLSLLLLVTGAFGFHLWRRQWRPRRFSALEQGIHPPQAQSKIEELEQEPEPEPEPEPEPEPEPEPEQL
- assayMethodText: cell-based or functional assay
measuredParameter: EC50 of mIL-2 release, DO11.10 T cell activation assay (human LAG-3)
Please don't drop the unit; write it after the number.

Ask | Need EC50 of mIL-2 release, DO11.10 T cell activation assay (human LAG-3), item anti-human LAG-3 Fcab FS18-7-95 with truncated hinge and LALA mutation (designed binder) TCPPCPAPEAAGGPSVFLFPPKPKDTLMISRTPEVTCVVVDVSHEDPEVKFNWYVDGVEVHNAKTKPREEQYNSTYRVVSVLTVLHQDWLNGKEYKCKVSNKALPAPIEKTISKAKGQPREPQVYTLPPSWDEPWGEDVSLTCLVKGFYPSDIAVEWESNGYQEDNYKTTPPVLDSDGSFFLYSKLTVPYDRWVWPDEFSCSVMHEALHNHYTQKSLSLSPG
Reply | 800 pM
